Reference for the values: PubChem BioAssay

measurementDescription: growth inhibition, MDA-MB-436, cell-based, BGB or cisplatin combos, synergistic combos for chromothripsis tumors (AID 1671458);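 note: cells exposed for 96 hours; 0% = vehicle DMSO and 100% = killing by high DMSO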
measurementSetup: MDA-MB-436 breast carcinoma growth inhibition, drug combinations; measured here: cisplatin combination; at 0.5 µM; stronger effect = higher value
# inhibition per entry
valueKind: inhibition (%)

[[record]]
compound = "O=c1ccn(C2CC(O)C(CO)O2)c(=O)[nH]1 (stereo not given)"
recordedmeasurement = -29.1

[[record]]
compound = "Cc1cc(C#N)cc(C)c1Oc1nc(Nc2ccc(C#N)cc2)nc(N)c1Br"
recordedmeasurement = -43.6

[[record]]
compound = "C[C@@H]1O[C@@H](O[C@@H]2[C@@H](O)[C@H](OCCc3ccc(O)c(O)c3)O[C@H](CO)[C@H]2OC(=O)C=Cc2ccc(O)c(O)c2)[C@H](O)[C@H](O)[C@H]1O"
recordedmeasurement = -39.6

[[record]]
compound = "Nc1nc(NC2CC2)cc(-c2cccc(Cl)c2Cl)n1"
recordedmeasurement = -5.74

[[record]]
compound = "CCC(Sc1nnc2c3ccccc3n(CC)c2n1)C(=O)Nc1ccccc1OC (stereo not given)"
recordedmeasurement = -37.5

